Test system: A549
experiment_notes: A549 wound healing inhibition (HGF dependent migration)
Format: cell-based
applied_conditions: Homo sapiens, Table 31, read-out: A549 wound healing inbib IC50
pIC50: −log10 of the molar value.
property_label: pIC50

// worked examples, pIC50 included
mol: C#Cc1ccccc1CC(=O)NC(=S)Nc1ccc(Oc2ccnc3cc(-c4cccc[n+]4[O-])sc23)c(F)c1
reported_result: > 6.00

mol: CCn1cnc(-c2cc3nccc(Oc4ccc(NC(=S)NC(=O)Cc5ccc(F)cc5F)cc4F)c3s2)c1
reported_result: 5.30 to 6.00

mol: C#Cc1ccc(F)c(CC(=O)NC(=S)Nc2ccc(Oc3ccnc4cc(-c5nccn5C)sc34)c(F)c2)c1
reported_result: 5.30 to 6.00

For each entry beneath this line, provide reported pIC50.
1. C#Cc1ccc(F)c(CC(=O)NC(=S)Nc2ccc(Oc3ccnc4cc(-c5cn(C)cn5)sc34)c(F)c2)c1
2. CN(c1ccc(NC(=S)NC(=O)Cc2ccccc2)cc1F)c1ccnc2cc(-c3nccn3C)sc12
3. COCCNCc1cccc(-c2cc3nccc(Oc4ccc(NC(=S)NC(=O)Cc5ccc(F)cc5)cc4F)c3s2)n1

Given back:
1: 5.30 to 6.00; 2: > 6.00; 3: > 6.00

For each entry beneath this line, provide reported pIC50.
1. C#Cc1cccc(F)c1CC(=O)NC(=S)Nc1ccc(Oc2ccnc3cc(-c4cn(C)cn4)sc23)c(F)c1
2. C#Cc1ccccc1CC(=O)NC(=S)Nc1ccc(Oc2ccnc3cc(-c4nccn4C)sc23)c(F)c1

Given back:
> 6.00
> 6.00

* * *

Can you tell me IC50 for the items I'm about to list?
test_target: VEGF receptor KDR (Homo sapiens)
Construct: made in house; host or cells: Sf9 cells (Spodoptera frugiperda), recombinant baculovirus
Sequence (P35968 806-1356): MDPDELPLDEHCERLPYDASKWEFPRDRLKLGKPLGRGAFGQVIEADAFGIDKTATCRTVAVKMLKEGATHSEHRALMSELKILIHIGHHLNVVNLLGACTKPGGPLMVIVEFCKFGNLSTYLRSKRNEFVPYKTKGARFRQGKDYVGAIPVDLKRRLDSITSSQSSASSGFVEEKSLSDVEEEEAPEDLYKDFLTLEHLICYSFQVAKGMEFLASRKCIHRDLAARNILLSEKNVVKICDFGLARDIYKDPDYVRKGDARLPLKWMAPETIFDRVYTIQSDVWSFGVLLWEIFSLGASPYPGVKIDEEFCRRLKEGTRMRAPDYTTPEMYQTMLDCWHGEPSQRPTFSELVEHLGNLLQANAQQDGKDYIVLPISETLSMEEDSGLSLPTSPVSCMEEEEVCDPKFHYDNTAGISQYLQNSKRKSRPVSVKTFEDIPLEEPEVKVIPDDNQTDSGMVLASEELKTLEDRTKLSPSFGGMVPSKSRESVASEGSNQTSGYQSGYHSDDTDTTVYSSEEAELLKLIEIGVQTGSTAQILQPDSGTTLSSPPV
experiment_notes: In vitro receptor tyrosine kinase assay (DELFIA), VEGF receptor KDR
Format: biochemical
applied_conditions: Table 31; ATP 0.6 uM, enzyme 5 nM; read-out: VEGFR IC50
From the text: In Vitro Receptor Tyrosine Kinase Assays (c-Met/HGF receptor and VEGF Receptor KDR) In the case of VEGF receptor KDR a 1.6-kb cDNA corresponding to the catalytic domain of VEGFR2 or KDR (Genbank accession number AF035121 amino acid 806 to 1356) was cloned into the Pst I site of the pDEST20 Gateway vector (Invitrogen) for the production of a GST-tagged version of that enzyme. […]

// worked examples, IC50 included
molecule: CN(c1ccc(NC(=S)NC(=O)Cc2ccccc2)cc1F)c1ccnc2ccsc12
IC50: > 500 nM

molecule: Cn1cnc(-c2cc3nccc(Oc4ccc(NC(=S)NC(=O)Cc5cccc(F)c5)cc4F)c3s2)c1
IC50: 50 to 250 nM

molecule: C#Cc1ccc(F)c(CC(=O)NC(=S)Nc2ccc(Oc3ccnc4cc(-c5nccn5C)sc34)c(F)c2)c1
IC50: < 50 nM

molecule: Cn1ccnc1-c1cc2nccc(Oc3ccc(NC(=S)NC(=O)Cc4ccc(F)cc4)cc3F)c2s1
IC50: < 50 nM

For each entry beneath this line, provide reported IC50.
1. C#Cc1cc(F)ccc1CC(=O)NC(=S)Nc1ccc(Oc2ccnc3cc(-c4nccn4C)sc23)c(F)c1
2. CC(C(=O)NC(=S)Nc1ccc(Oc2ccnc3cc(-c4nccn4C)sc23)c(F)c1)c1ccccc1 (centres unmarked)

Given back:
< 50 nM
50 to 250 nM

For each entry beneath this line, provide reported IC50.
1. CC(=O)N1CC=C(c2cc3nccc(Oc4ccc(NC(=S)NC(=O)Cc5ccc(F)cc5)cc4F)c3s2)CC1
2. C#Cc1ccc(CC(=O)NC(=S)Nc2ccc(Oc3ccnc4cc(-c5cn(CCN6CCCC6)cn5)sc34)c(F)c2)cc1

Given back:
< 50 nM
< 50 nM

Where do these numbers come from? They come from patent US20100249145A1.
